# inhibition at 10 µM listing for each entry below
tested.target: hFASN enzyme (full length) (Homo sapiens)
Construct: 10 μL hFASN enzyme (full length, 300 ng, purified in house); made in house
method.summary: Fatty Acid Synthase (FASN) Inhibition Scintillation Proximity Assay
Assay type: biochemical
measurement.conditions: read-out: FASN % Effect @1E−05M
measured.metric: inhibition at 10 µM (%)

1. Cc1ccc(C(=O)N2CC(c3ccc(-c4ccnn4C)cc3)C2)cc1NC(=O)c1ccc(N2CCN(C)CC2)nc1; 103
2. CCCN1CCC(C(=O)Nc2cc(C(=O)N3CCC(c4ccc(-c5cnn(C)c5)cc4)CC3)ccc2C)C1 (stereo not drawn); 106
3. Cc1ccc(C(=O)N2CCC(c3ccc(-c4cnn(C)c4)cc3)CC2)cc1NC(=O)C1CN(C(C)C)C1; 99

====

Measured inhibition at 10 µM accompanies every entry in the list below.
tested.target: hFASN enzyme (full length) (Homo sapiens)
Construct: 10 μL hFASN enzyme (full length, 300 ng, purified in house); made in house
method.summary: Fatty Acid Synthase (FASN) Inhibition Scintillation Proximity Assay
Format: biochemical
measurement.conditions: read-out: FASN % Effect @1E−05M
measured.metric: inhibition at 10 µM (%)

1. Cc1ccc(C(=O)N2CC(c3ccc(-c4ccncc4N)cc3)C2)cc1NC(=O)c1ccc(Cl)nc1 [Compound 266]; 112
2. Cc1ccc(C(=O)N2CCC(c3ccc4ccncc4c3)CC2)cc1NC(=O)c1ccc(NC(C)C)nc1 [Compound 28]; 101
3. CC(C)N(C)c1ccc(C(=O)N2CCC(c3ccc(-c4cnn(C)c4)cc3)CC2)cc1NC(=O)c1ccc(Cl)nc1 [Compound 274]; 88
4. Cc1ccc(C(=O)N2CC(c3ccc(-c4ccnn4C)cc3)C2)cc1NC(=O)c1ccc(NC2CCC2)nc1 [Compound 62]; 103
5. Cc1ccc(C(=O)N2CCC(c3ccc(-c4cnn(C)c4)cc3)CC2)cc1NC(=O)C1CCN(C(=O)C2CC2)C1 (stereo not drawn) [Compound 220]; 110
6. Cc1ccc(C(=O)N2CCC(c3ccc(-c4cnn(C)c4)cn3)CC2)cc1NC(=O)c1ccc(Cl)nc1 [Compound 263]; 111
7. Cc1ccc(C(=O)N2CCC(c3ccc(-c4cnn(C)c4)cc3)CC2)cc1NC(=O)C1CN(CCC(C)C)C1 [Compound 213]; 111
8. Cc1ccc(C(=O)N2CCC(c3ccc(-c4cnn(C)c4)cc3)CC2)cc1NC(=O)C1CN(C(=O)C2CC2)C1 [Compound 219]; 116
9. Cc1ccc(C(=O)N2CC[C@H](c3ccc(-n4ccnc4)cc3)[C@H](C)C2)cc1NC(=O)c1ccc(Cl)nc1 (racemic) [Compound 53]; 101
10. Cc1ccc(C(=O)N2CCC(c3ccc(-c4cnn(C)c4)cc3)CC2)cc1NC(=O)c1ccc(C#N)cc1 [Compound 138]; 107
11. Cc1ccc(C(=O)N2CCC(c3ccc(-c4cnn(C)c4)cc3)CC2)cc1NC(=O)c1ccc(C#N)cc1F [Compound 129]; 104
12. CCCCC(C)N1CCC(C(=O)Nc2cc(C(=O)N3CCC(c4ccc(-c5cnn(C)c5)cc4)CC3)ccc2C)C1 (stereo not drawn) [Compound 197]; 98

====

tested.target: FASN Keto-reductase Domain (Homo sapiens, UniProt P49327)
Construct: 10 μL hFASN enzyme (full length, 300 ng, purified in house) and 360 μM NADPH; made in house
Sequence (P49327 whole entry, the tested form may be a part): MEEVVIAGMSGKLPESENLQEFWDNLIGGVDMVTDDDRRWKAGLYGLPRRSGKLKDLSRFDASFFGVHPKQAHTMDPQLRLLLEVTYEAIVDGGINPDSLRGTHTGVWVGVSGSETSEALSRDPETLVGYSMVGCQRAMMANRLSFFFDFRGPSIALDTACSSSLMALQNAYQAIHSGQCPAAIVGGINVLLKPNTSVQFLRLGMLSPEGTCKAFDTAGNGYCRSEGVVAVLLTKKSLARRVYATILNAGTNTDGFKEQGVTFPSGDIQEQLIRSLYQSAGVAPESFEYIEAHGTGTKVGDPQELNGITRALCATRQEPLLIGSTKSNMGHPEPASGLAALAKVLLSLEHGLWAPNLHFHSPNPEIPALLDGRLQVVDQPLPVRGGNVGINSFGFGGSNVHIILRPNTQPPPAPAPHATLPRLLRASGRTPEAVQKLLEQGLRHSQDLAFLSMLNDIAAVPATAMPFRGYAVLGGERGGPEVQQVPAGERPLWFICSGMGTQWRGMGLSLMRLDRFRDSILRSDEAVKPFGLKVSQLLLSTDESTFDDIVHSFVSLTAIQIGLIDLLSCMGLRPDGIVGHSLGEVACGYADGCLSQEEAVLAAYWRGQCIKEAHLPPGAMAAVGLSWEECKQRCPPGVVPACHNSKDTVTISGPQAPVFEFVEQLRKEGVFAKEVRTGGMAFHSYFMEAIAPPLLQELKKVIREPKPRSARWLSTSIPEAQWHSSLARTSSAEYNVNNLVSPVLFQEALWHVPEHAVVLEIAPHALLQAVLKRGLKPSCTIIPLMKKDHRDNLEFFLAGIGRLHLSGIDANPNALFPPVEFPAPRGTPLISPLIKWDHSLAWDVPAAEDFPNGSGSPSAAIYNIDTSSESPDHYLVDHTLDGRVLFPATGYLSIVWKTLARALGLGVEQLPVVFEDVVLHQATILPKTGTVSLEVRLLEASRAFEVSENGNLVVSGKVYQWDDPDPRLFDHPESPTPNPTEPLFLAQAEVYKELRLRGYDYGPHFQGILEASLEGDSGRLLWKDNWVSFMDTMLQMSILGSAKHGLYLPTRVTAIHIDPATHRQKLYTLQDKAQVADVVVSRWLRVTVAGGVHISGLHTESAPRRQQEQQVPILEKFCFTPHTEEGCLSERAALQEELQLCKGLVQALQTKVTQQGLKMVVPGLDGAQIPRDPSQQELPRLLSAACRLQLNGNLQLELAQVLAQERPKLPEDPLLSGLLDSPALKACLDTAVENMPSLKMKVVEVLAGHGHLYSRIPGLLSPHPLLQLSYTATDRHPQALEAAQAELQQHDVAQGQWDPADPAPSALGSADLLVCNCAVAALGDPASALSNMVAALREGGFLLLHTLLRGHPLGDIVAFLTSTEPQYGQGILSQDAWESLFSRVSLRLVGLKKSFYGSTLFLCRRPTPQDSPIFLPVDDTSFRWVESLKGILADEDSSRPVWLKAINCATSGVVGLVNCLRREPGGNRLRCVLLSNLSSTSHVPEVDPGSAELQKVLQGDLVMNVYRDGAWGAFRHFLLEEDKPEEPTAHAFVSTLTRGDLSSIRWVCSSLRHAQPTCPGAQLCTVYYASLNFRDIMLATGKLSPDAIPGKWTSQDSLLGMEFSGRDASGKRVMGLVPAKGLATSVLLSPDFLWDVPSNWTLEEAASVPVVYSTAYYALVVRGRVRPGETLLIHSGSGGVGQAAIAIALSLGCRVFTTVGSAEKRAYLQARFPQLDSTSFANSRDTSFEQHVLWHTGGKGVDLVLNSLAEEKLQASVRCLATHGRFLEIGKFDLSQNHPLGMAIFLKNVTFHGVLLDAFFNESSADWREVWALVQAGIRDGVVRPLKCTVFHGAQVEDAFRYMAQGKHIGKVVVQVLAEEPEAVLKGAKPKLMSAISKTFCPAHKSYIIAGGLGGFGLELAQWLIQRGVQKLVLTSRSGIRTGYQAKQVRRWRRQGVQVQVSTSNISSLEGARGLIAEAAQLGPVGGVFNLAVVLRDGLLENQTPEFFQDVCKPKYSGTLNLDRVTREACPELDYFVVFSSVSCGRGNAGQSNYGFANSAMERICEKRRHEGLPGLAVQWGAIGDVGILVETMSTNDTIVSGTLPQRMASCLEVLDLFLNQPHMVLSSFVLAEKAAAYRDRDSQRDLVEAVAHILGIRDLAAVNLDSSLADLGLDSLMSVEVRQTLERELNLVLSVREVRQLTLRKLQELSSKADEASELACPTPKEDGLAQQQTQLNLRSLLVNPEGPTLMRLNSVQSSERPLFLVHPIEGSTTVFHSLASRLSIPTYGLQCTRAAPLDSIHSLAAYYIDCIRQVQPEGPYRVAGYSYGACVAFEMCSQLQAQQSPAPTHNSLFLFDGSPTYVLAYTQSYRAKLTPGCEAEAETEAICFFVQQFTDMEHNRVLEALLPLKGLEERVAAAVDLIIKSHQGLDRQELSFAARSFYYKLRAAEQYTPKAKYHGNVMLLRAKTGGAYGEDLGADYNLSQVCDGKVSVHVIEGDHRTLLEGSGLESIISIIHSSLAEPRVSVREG
method.summary: Fatty Acid Synthase Keto-Reductase Domain (FASN KR) Inhibition
Assay type: biochemical
measurement.conditions: mean where tested more than once; read-out: FASN K-R Domain pIC50 (converted)
measured.metric: IC50 (nM)

1) COc1ncccc1C(=O)Nc1cc(C(=O)N2CCC(c3ccc(-c4cnn(C)c4)cc3)CC2)ccc1C; 288
2) Cc1ccc(C(=O)N2CCC(c3ccc(-c4cnn(C)c4)cc3)CC2)cc1NC(=O)c1ccc(F)c(F)c1F; 97.7
3) Cc1ccc(C(=O)N2CC(c3ccc(-c4ccncc4N)cc3)C2)cc1NC(=O)c1ccc(N2CCOCC2)nc1; 60.3
4) CCCCCN1CCC(C(=O)Nc2cc(C(=O)N3CCC(c4ccc(-c5cnn(C)c5)cc4)CC3)ccc2C)C1 (stereo not shown); 309

====

Tested on: A2780 ovarian cells
method.summary: A2780 Ovarian Cell Proliferation Assay in Lipid Reduced Medium, without Palmitate
Format: cell-based
measurement.conditions: Homo sapiens, A2780; lipid reduced medium, without palmitate, 96 h, MTT; read-out: Proliferation A2780 w/o Palmitate pIC50 (converted)
measured.metric: log10(IC50) (log10 of the value in nM)

1. Cc1ccc(C(=O)N2CCC(c3ccc(-c4cnn(C)c4)cc3)CC2)cc1NC(=O)C1CN(CC(C)(C)C)C1; 2.41
2. Cc1ccc(C(=O)N2CC(c3ccc(-c4ccnn4C)cc3)C2)cc1NC(=O)c1cncc(Br)c1; 2.64
3. Cc1ccc(C(=O)N2CCC(c3ccc(-n4ccnc4)cc3)C(C)(C)C2)cc1NC(=O)c1ccc(NC(C)C)nc1 (centres unmarked); 2.12
4. Cc1ccc(C(=O)N2CC(c3ccc(-c4ccc5c(cnn5C)c4)cc3)C2)cc1NC(=O)c1ccc(NC(C)C)nc1; 3.15
5. Cc1ccc(C(=O)N2CCC(c3ccc(-c4cnn(C)c4)cc3)CC2)cc1NC(=O)c1ccc(Cl)c(Cl)c1; 2.21
6. Cc1ccc(C(=O)N2CCC(c3ccc(-c4cnn(C)c4)cn3)CC2)cc1NC(=O)c1ccc(NC(C)C)nc1; 1.94
7. Cc1ccc(C(=O)N2CCC(c3ccc(-c4ccccc4)cc3)CC2)cc1NC(=O)c1ccc(NC(C)C)nc1; 2.77
8. Cc1ccc(F)c(C(=O)Nc2cc(C(=O)N3CCC(c4ccc(-c5cnn(C)c5)cc4)CC3)ccc2C)c1; 2.75
9. Cc1ccc(C(=O)N2CCC(c3ccc(-c4cnn(C)c4)cc3)CC2)cc1NC(=O)c1cncs1; 2.15
10. Cc1ccc(C(=O)N2CCC(c3ccc(-c4cnn(C)c4)cc3)CC2)cc1NC(=O)c1ccc(F)cc1Cl; 2.37
11. CCCCN1CCC(C(=O)Nc2cc(C(=O)N3CCC(c4ccc(-c5cnn(C)c5)cc4)CC3)ccc2C)C1 (centres unmarked); 2.08
12. Cc1ccc(C(=O)N2CC(c3ccc(-c4cnn(C)c4)cc3)C2)cc1NC(=O)C1CCC1; 2.48
13. Cc1ccc(C(=O)N2CCC(c3ccc(-c4cnn(C)c4)nc3)CC2)cc1NC(=O)c1ccc(NC(C)C)nc1; 2.73
14. COc1ccc(C(=O)N2CC(c3ccc(-c4cnn(C)c4)cc3)C2)cc1NC(=O)c1ccc(N2CCOCC2)nc1; 1.77
15. Cc1ccc(C(=O)N2CCC(c3ccc(-c4cnn(C)c4)cc3)CC2)cc1NC(=O)C1CCN(CC(C)C)C1 (centres unmarked); 2.02
16. CCN1CCC(C(=O)Nc2cc(C(=O)N3CCC(c4ccc(-c5cnn(C)c5)cc4)CC3)ccc2C)CC1; 1.86
17. Cc1ccc(C(=O)N2CC[C@H](c3ccc(-c4ccnn4C)cc3)[C@@H](C)C2)cc1NC(=O)c1ccc(NC(C)C)nc1 (racemic); 2.04

====

tested.target: hFASN enzyme (full length) (Homo sapiens, UniProt P49327)
Construct: 10 μL hFASN enzyme (full length, 300 ng, purified in house); made in house
Sequence (P49327 whole entry): as the sequence (P49327 whole entry, the tested form may be a part) above
method.summary: Fatty Acid Synthase (FASN) Inhibition Scintillation Proximity Assay
Format: biochemical
measurement.conditions: read-out: FASN % Effect @1E−05M
measured.metric: inhibition at 10 µM (%)

1) CCC(=O)N[C@@H]1CC[C@H](C(=O)Nc2cc(C(=O)N3CCC(c4ccc(-c5ccnn5C)cc4)CC3)ccc2C)C1 [Compound 13]; 99
2) Cc1ccc(C(=O)N2CCC(c3ccc(-c4cnn(C)c4)cc3)CC2)cc1NC(=O)c1ccc(N2CCN[C@H](CO)C2)nc1 [Compound 164]; 110
3) Cc1ccc(C(=O)N2CCC(c3ccc(-c4cnn(C)c4)cc3)CC2)cc1NC(=O)c1sccc1C [Compound 149]; 103
4) CCCN1CCC(C(=O)Nc2cc(C(=O)N3CCC(c4ccc(-c5cnn(C)c5)cc4)CC3)ccc2C)CC1 [Compound 181]; 108
5) Cc1ccc(C(=O)N2CCC(c3ccc(-c4cn[nH]c4)cc3)CC2)cc1NC(=O)c1ccc(NC(C)C)nc1 [Compound 42]; 106
6) Cc1ccc(C(=O)N2CC(c3ccc(-c4cccnc4N)cc3)C2)cc1NC(=O)c1ccc(Cl)nc1 [Compound 259]; 103
7) CCCCN1CC(C(=O)Nc2cc(C(=O)N3CCC(c4ccc(-c5cnn(C)c5)cc4)CC3)ccc2C)C1 [Compound 242]; 105
8) Cc1ccc(C(=O)N2CC(c3ccc(-c4ccnn4C)cc3)C2)cc1NC(=O)c1cncc(Br)c1 [Compound 56]; 95

====

tested.target: FASN Keto-reductase Domain (Homo sapiens, UniProt P49327)
Construct: 10 μL hFASN enzyme (full length, 300 ng, purified in house) and 360 μM NADPH; made in house
method.summary: Fatty Acid Synthase Keto-Reductase Domain (FASN KR) Inhibition
Format: biochemical
measurement.conditions: mean where tested more than once; read-out: FASN K-R Domain pIC50 (converted)
Categorized via IC50: lower range = under 100 nM, middle range = from 100 nM up to 200 nM, upper range = 200 nM and over

1. Cc1ccc(C(=O)N2CCC(c3ccc(-c4cnn(C)c4)cc3)CC2)cc1NC(=O)C1CN(C2CCC2)C1; upper range
2. COCCNc1ccc(C(=O)N2CCC(c3ccc(-c4cnn(C)c4)cc3)CC2)cc1NC(=O)c1ccc(NC(C)C)nc1; upper range
3. Cc1ccc(C(=O)N2CCC(c3ccc(-c4cnn(C)c4)cc3)CC2)cc1NC(=O)c1cnc(N2CCOCC2)nc1; lower range
4. Cc1ccc(C(=O)N2CCC(c3ccc(-c4cnn(C)c4)cc3)CC2)cc1NC(=O)C1CCN(C(C)C)CC1; middle range
5. Cc1ccc(C(=O)N2CCC(c3ccc(-c4cnn(C)c4)cc3)CC2)cc1NC(=O)C1CCN(C)CC1; middle range
6. Cc1ccc(C(=O)N2CC(c3ccc(-c4cnn(C)c4)cc3)C2)cc1NC(=O)C1CCCCC1; lower range
7. Cc1ccc(C(=O)N2CCC(c3ccc4nccn4c3)CC2)cc1NC(=O)c1ccc(Cl)nc1; upper range
8. Cc1ccc(C(=O)N2CCC(c3ccc(-c4cnn(C)c4)cc3)C2)cc1NC(=O)c1ccc(Cl)nc1 (stereo not shown); upper range
9. Cc1ccc(C(=O)N2CCC(c3ccc(-c4cnn(-c5ccncc5)c4)cc3)CC2)cc1NC(=O)c1ccc(NC(C)C)nc1; middle range
10. Cc1ccc(C(=O)N2CCC(c3ccc(-c4cnn(C)c4)cc3)CC2)cc1NC(=O)c1cnc(N(C)C(C)C)nc1; lower range
11. Cc1ccc(C(=O)N2CC(c3ccc(-c4ccnn4C)cc3)C2)cc1NC(=O)c1ccc(NC(C)C)nc1; lower range
12. CCCCN1CCC(C(=O)Nc2cc(C(=O)N3CCC(c4ccc(-c5cnn(C)c5)cc4)CC3)ccc2C)CC1; lower range
13. Cc1ccc(C(=O)N2CC(c3ccc(-c4cnn(C)c4)cc3)C2)cc1NC(=O)c1ccc(N(C)C2CCN(C)CC2)nc1; lower range
14. Cc1ccc(C(=O)N2CCC(c3ccc(-c4cnn(C)c4)cc3)CC2)cc1NC(=O)C(C)(C)C; upper range
